Hi there, I'd appreciate the recorded pIC50 for every entry that follows.
# Experimental System: APOL1 (Homo sapiens, UniProt O14791)
# Sequence (O14791 whole entry S342G/I384M, form open): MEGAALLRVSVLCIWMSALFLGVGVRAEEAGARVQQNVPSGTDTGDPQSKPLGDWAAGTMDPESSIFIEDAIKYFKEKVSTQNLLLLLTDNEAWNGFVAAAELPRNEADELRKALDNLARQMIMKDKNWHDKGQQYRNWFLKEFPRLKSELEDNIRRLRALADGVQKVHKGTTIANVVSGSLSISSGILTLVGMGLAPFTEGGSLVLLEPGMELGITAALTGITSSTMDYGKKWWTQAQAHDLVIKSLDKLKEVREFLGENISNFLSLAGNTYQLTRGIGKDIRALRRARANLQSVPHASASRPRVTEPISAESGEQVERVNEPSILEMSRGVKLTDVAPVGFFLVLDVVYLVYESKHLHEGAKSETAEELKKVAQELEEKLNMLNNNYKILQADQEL
# Protocol Summary: Multi-Tox Assay (MultiTox-Fluor Multiplex Cytotoxicity Assay in tet-inducible APOL1 T-REx-HEK293 cells; Table 46 does not say which APOL1 variant G0/G1/G2)
# Condition Notes: IP50 = IC50 for cell proliferation, APOL1 variant not given
pIC50: −log10 of the molar value.

(Q) Tell us which pIC50 value is on record for C[C@H]1C[C@@]2(C[C@@H](c3cn(CCC4CCCOC4)nn3)N1)OCC(F)(F)c1cc(Cl)sc12 (some centres unmarked) [Compound 314]
(A) > 7.30

(Q) Indicate the recorded pIC50 value for this compound: C[C@H]1C[C@@]2(C[C@@H](c3cn(CC(N)=O)nn3)N1)OCCc1cc(Cl)sc12 (racemic) [Compound 133]
(A) 6.30 to 7.30

(Q) Look up and state reported pIC50 for C[C@H]1C[C@@]2(C[C@@H](c3ncc(C(F)(F)F)[nH]3)N1)OCCc1cc(Cl)sc12 (racemic) [Compound 165]
(A) < 6.30

(Q) Give the measured pIC50 for CCC(O)Cn1cc([C@@H]2C[C@]3(C[C@H](C)N2)OCC(F)(F)c2cc(Cl)sc23)nn1 (some centres unmarked) [Compound 325]
(A) > 7.30

(Q) Return pIC50 (reported value) for this compound: C[C@H]1C[C@@]2(C[C@@H](c3cn(CC4CCOCC4)nn3)N1)OCC(F)(F)c1cc(Cl)sc12 [Compound 309]
(A) 6.30 to 7.30

State the recorded pIC50 for every item in the following list.
1. C[C@@H]1CC2(C[C@H](C)N1)OCCc1sc(C(F)(F)F)cc12 (single isomer, unassigned) [Compound 196]
2. C[C@H]1C[C@@]2(C[C@@H](c3c[nH]c(C4CC4)n3)N1)OCCc1cc(Cl)sc12 (racemic) [Compound 130]
3. COc1cccc(Cn2cc([C@@H]3C[C@]4(C[C@H](C)N3)OC[C@@H](O)c3cc(Cl)sc34)nn2)c1 [Compound 278]

(A)
1. 6.30 to 7.30
2. 6.30 to 7.30
3. > 7.30

Provenance of the data: patent US12421249B2
